- experimental_protocol: Clearance in rat at 2 mg/kg, iv
- Assay type: ADME, organism-based
- Parameters: dose 2 mg/kg, route intravenous
- recorded_conditions: in vivo
outcome_measure: clearance (mL/min/kg)
Write down the numeric answer in mL/min/kg and omit the unit.

IN: Sample "CS(=O)(=O)Nc1cc([C@@H](O)CNCCCCCCCCCN2CCC(OC(=O)Nc3ccccc3-c3ccc(O)c(Cl)c3)CC2)ccc1O" — what was its clearance?
OUT: 164

---

- experimental_protocol: Clearance in guinea pig at 0.2 mg/kg, po
- Format: ADME, organism-based, Cavia porcellus
- Design: dose 0.2 mg/kg, route oral
- recorded_conditions: in vivo
outcome_measure: CL/F (L/h/kg)
Number in L/h/kg, nothing else.

IN: # get_value(readout='CL/F', item= "CS(=O)(=O)Nc1cc([C@@H](O)CNCCCCCCCCCN2CCC(OC(=O)Nc3ccccc3-c3ccc(O)c(Cl)c3)CC2)ccc1O" )
OUT: 0.216
